# assay name: small-molecule microarray binders of probe aLefty2, primary screen, biochemical, biotinylated probe, 635/667 nm fluorescence (AID 1094);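 note: score merges spot fluorescence near 667 nm with spot signal-to-noise ratio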
# condition description: higher = more signal
Response key: true (1) means composite z-score >= 0.04; false (0) means composite z-score < 0.04.

> print(dat)
                                   compound      label
1  COC(=O)[C@@]1(Cc2ccc(F)cc2)[C@H]2c3cc(C(=O)N(C)C)n(Cc4ccc(O)c(OC)c4)c3C[C@H]2CN1C(=O)c1ccccc1  false (0)
2  COCC(=C=CC[C@H](O)c1cccc(OCCO)c1)C[C@H](O)COCc1ccccc1   true (1)
3  CC1(C)C(=O)C(c2ccccc2)=C2CN3C(=O)N(CCc4ccccc4)C(=O)C3(Cc3ccc(C(F)(F)F)cc3)C=C21 (configuration not stated)   true (1)
4  NC(=O)[C@@H]1[C@H]2C(=O)O[C@H](c3ccccc3)[C@H](c3ccccc3)N2[C@H](c2ccc(OCCO)cc2)[C@@]12C(=O)Nc1ccc(C#CCCO)cc12   true (1)
5  Cc1ccc(S[C@]2(C(=O)NC(C)C)CC(=O)N(Cc3ccccc3Cl)[C@@H]2c2ccc(CO)cc2)cc1   true (1)
6  CCOC(=O)C[C@H]1[C@H](OC(=O)c2ccccc2-c2ccccc2)[C@@H](NC(=O)c2ccc3ccccc3n2)c2cc(OCCCO)ccc2N1C(=O)c1ccccc1  false (0)
7  C=CCN1C(=O)[C@@]2(O[C@@H](CCO)[C@H]([Si](C)(C)c3ccc(OC)cc3)[C@H]2C)c2cc(N3CCOC3=O)ccc21  false (0)

---

# assay name: anti-His antibody binders, primary screen, artefact control for SMM control protein annotation, biochemical, small-molecule microarray, 635 nm fluorescence (AID 1128);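 note: score merges feature fluorescence with signal-to-noise for each printed compound spot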
# condition description: anti-His Alexa647 antibody binding, higher = more signal
experimental readout: composite z-score

> print(dat)
                           structure.smiles  experimental.readout  obs.value
1  COC(=O)[C@@]1(Cc2ccccc2CN=[N+]=[N-])N=C(c2ccc(OCCCO)cc2)O[C@H]1c1ccccc1CN=[N+]=[N-]     composite z-score     -0.242
2  C=C(C(=O)CC[C@@H](OC(=O)c1ccccc1-c1ccccc1C(=O)O)c1ccccc1OCCO)C(C)C     composite z-score     -0.186
3  COC(=O)[C@@]1(Cc2ccccc2CN=[N+]=[N-])N=C(c2ccc(OCCCO)cc2)O[C@H]1c1ccccc1     composite z-score        2.5
4  CCOC(=O)C1=C[C@@H](c2ccccc2)N(S(=O)(=O)c2ccc(C)cc2)[C@H]1c1ccccc1     composite z-score      0.421

---

A collection of compounds and their measured composite z-score
# system: Dickkopf-related protein 1 (Homo sapiens)
# assay name: DKK1 binders on small-molecule microarrays, primary screen, biochemical, small-molecule microarray, 635 nm fluorescence scan (AID 1106);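 note: score merges emission near 667 nm with signal to noise over three replicate slides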
# condition description: DKK1 binding, higher = more signal

compound	composite z-score
NC(=O)[C@@H]1[C@H]2C(=O)O[C@H](c3ccccc3)[C@H](c3ccccc3)N2[C@H](c2ccc(OCCO)cc2)[C@@]12C(=O)Nc1ccc(C#CCCO)cc12	0.0322
C=C(/C(=C/C[C@@H](OC(C)=O)c1ccc(OCCO)cc1)c1cc(C(=O)OC)ccc1OC)C(C)C	0.328
Cc1ccc(S[C@]2(C(=O)NC(C)C)CC(=O)N(C(C)C)[C@@H]2c2ccc(CO)cc2I)cc1	-0.484
CCOC(=O)C1=C[C@@H](C(C)(C)C)N(S(=O)(=O)c2ccc(C)cc2)[C@H]1c1cccc(Cl)c1	0.0675
CC=CC(O)C1C=CC2C(=O)NC(=O)C2N1Nc1ccccn1 (configuration not stated)	0.697
COCCOC(=O)N1C(=O)[C@@]2(c3cc(C#CCNC(N)=O)ccc31)[C@H](c1ccc(OCCO)cc1)N1[C@H](c3ccccc3)[C@H](c3ccccc3)OC(=O)[C@H]1[C@@H]2C(=O)NC[C@H](O)c1ccccc1	0.583
C=C(C(=O)CC[C@H](OC(=O)c1ccccc1-c1ccccc1C(=O)O)c1ccccc1OCCO)C(C)C	0.273

---

# assay name: small-molecule binders of probe aNOTCH3, primary screen, biochemical, small-molecule microarray, 635/667 nm fluorescence (AID 1120);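 note: probe is a biotin-tagged antibody raised against NOTCH3 rather than NOTCH3 protein; score merges spot fluorescence near 667 nm with spot signal to noise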
# condition description: higher = more signal
A collection of molecules and their measured composite z-score
experimental readout: composite z-score

> print(dat)
                                   molecule  obs.value
1  CCOC(=O)C[C@H]1[C@H](OC(=O)c2ccc(C(=O)c3ccccc3)cc2)[C@@H](NC(=O)CC(C)C)c2cc(OCCCO)ccc2N1C(=O)Cc1ccc(OC)cc1    -0.0377
2  O=C(O)[C@@H]1C[C@@H]2C(=O)N3CCC[C@H]3C(=O)N2[C@@H]1c1cccc(OCCO)c1       1.56
3  CCCCCN1CC=CC23O[C@@H]4C=CCOC(=O)[C@@H]4[C@H]2C(=O)N(CCO)[C@@H]3C1=O (some centres undefined)     -0.221
4  COc1cccc(/C=C(\C#N)C(=O)Nc2c(C)n(C)n(-c3ccccc3)c2=O)c1     -0.053

---

# assay name: basal S. cerevisiae growth modulation, no modifier, primary screen, OD600, strain BY4716, 24 h, basal condition (AID 1173)
# condition description: OD600, 24 h, higher = more signal, called active from +8 up or from −8 down
Activity calls are given as the source filed them.
A collection of compounds and their measured z-score

compound	z-score
NC(=O)[C@@H]1[C@H]2C(=O)O[C@H](c3ccccc3)[C@H](c3ccccc3)N2[C@H](c2ccc(OCCO)cc2)[C@@]12C(=O)Nc1ccc(C#CCCO)cc12	-0.349 (inactive)
[N-]=[N+]=NCc1ccccc1[C@@H]1OC(c2ccc(OCCCO)cc2)=N[C@]1(Cc1ccccc1)C(=O)NCCN1CCOCC1	-0.559 (inactive)
CC(C)[Si]1(C(C)C)OCc2cc(-c3ccc(-c4ccc(Cl)c(Cl)c4)o3)nc(CCc3ccccc3)c21	-3.49 (inactive)
COc1ccc([Si](C)(C)[C@@H]2[C@@H](CCn3cc([C@H](O)c4ccccc4)nn3)O[C@]3(C(=O)N(Cc4cccc(N5C(=O)c6cccc7cccc5c67)c4)c4ccccc43)[C@H]2C)cc1	1.33 (inactive)
Cc1c(NC(=O)/C(C#N)=C/c2ccccc2Cl)c(=O)n(-c2ccccc2)n1C	-1.08 (inactive)
[N-]=[N+]=Nc1ccccc1C[C@]1(C(=O)O)N=C(c2ccc(OCCCO)cc2)O[C@H]1c1ccccc1	-1.77 (inactive)
CC(C)[C@H]1NC(=O)[C@@]23C(=O)N[C@@H](Cc4ccccc4)C2[C@H](C)[C@@]2(C)O[C@H]2C3/C=C/C/C=C\CNC(=O)[C@H](Cc2ccccc2)NC1=O (some centres not stated)	-0.516 (inactive)

---

# Test system: Sam68 (KHDRBS1)
# assay name: Sam68 small-molecule binders, primary screen, biochemical, small-molecule microarray, 635 nm fluorescence (AID 1125);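 note: score merges 667 nm channel intensity with signal to noise over triplicate slides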
# condition description: small-molecule microarray binding, higher = more signal

molecule	system	composite z-score
NC(=O)[C@H]1[C@@H]2C(=O)O[C@@H](c3ccccc3)[C@@H](c3ccccc3)N2[C@@H](c2ccc(O)cc2)[C@]12C(=O)Nc1ccccc12	Sam68 (KHDRBS1)	-0.783
COCCOC(=O)N1C(=O)[C@@]2(c3cc(C#CCNC(N)=O)ccc31)[C@H](c1ccc(OCCO)cc1)N1[C@H](c3ccccc3)[C@H](c3ccccc3)OC(=O)[C@H]1[C@@H]2C(N)=O	Sam68 (KHDRBS1)	1.13
COCCCNC(=O)[C@@]1(Sc2ccc(C)cc2)CC(=O)N(Cc2ccccc2Cl)[C@@H]1c1ccc(CO)cc1I	Sam68 (KHDRBS1)	-1.22
CN1C(=O)C2C=CC(C(O)c3cc(C(F)(F)F)cc(C(F)(F)F)c3)N(NC(=O)OC(C)(C)C)C2C1=O (configuration not stated)	Sam68 (KHDRBS1)	1.3
O=C(N1CCOCC1)[C@@]1(CCS(=O)(=O)c2ccccc2)N=C(c2ccc(OCCCO)cc2)O[C@H]1c1ccccc1	Sam68 (KHDRBS1)	1.31
COc1ccc([Si](C)(C)[C@H]2[C@H](CC(=O)N3CCC[C@H]3CO)O[C@@]3(C(=O)N(Cc4ccc(N5CCC5=O)cc4)c4ccccc43)[C@@H]2C)cc1	Sam68 (KHDRBS1)	1.3
CC(C)C(=C=CC[C@H](O)c1cccc(OCCO)c1)CCO	Sam68 (KHDRBS1)	-0.126

---

# system: Follistatin (Homo sapiens) (UniProt P19883)
# Sequence (P19883 whole entry, looked up): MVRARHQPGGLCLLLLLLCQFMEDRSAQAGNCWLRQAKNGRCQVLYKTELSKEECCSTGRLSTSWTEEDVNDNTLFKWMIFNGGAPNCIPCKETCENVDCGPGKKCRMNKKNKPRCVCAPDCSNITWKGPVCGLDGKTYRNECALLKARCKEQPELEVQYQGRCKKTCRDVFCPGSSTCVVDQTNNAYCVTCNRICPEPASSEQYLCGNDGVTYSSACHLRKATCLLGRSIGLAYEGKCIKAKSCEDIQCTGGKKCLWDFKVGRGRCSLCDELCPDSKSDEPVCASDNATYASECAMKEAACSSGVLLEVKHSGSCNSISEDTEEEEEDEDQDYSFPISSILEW
# assay name: follistatin binders on small-molecule microarrays, primary screen, biochemical, small-molecule microarray, 635/667 nm fluorescence (AID 1132)
# condition description: FST binding, 635 nm fluorescence, higher = more signal
experimental readout: composite z-score

compound	obs value
C=CCNC(=O)[C@H]1[C@@H]2C(=O)O[C@@H](c3ccccc3)[C@@H](c3ccccc3)N2[C@@H](c2ccc(O)cc2)[C@]12C(=O)N(C(=O)OCCOC)c1ccc(C#CCC(C(=O)OC)C(=O)OC)cc12	1.32
C=C(/C(=C/C[C@H](OC(=O)c1ccncc1)c1cccc(OCCO)c1)c1cnc2ccccc2c1)C(C)C	1.46
Cc1ccc(S[C@]2(C(=O)NCc3ccccc3)CC(=O)N(Cc3cc(C(F)(F)F)cc(C(F)(F)F)c3)[C@@H]2c2ccc(CO)cc2I)cc1	-1.18
CN1C(=O)C2C(C1=O)C1C=C(CCCO)C2C(c2cccs2)N1Cc1cc2c(cc1Br)OCO2 (centres undefined)	1.35
COc1ccc(CCNC(=O)[C@@]2(Cc3ccccc3I)c3ccccc3C(=O)N(Cc3ccccc3Cl)[C@H]2c2ccc(CO)cc2)cc1	0.0376
O=C1O[C@H](c2ccccc2)[C@H](c2ccccc2)N2[C@H]1[C@@H](C(=O)O)[C@]1(C(=O)Nc3ccc(C#CC4(O)CCCCCC4)cc31)[C@H]2c1ccc(O)cc1	-0.0848
COC(=O)[C@@]1(Cc2ccc(F)cc2)[C@H]2c3cc(C(=O)N(C)C)n(Cc4ccc(O)c(OC)c4)c3C[C@H]2CN1C(=O)c1ccccc1	0.0157
CC(C)CCC[C@@H](C)[C@H]1CC[C@@]2(C)C3=C(CC[C@]12C)[C@@]1(C)CC[C@H](OC(=O)c2ccccc2)C(C)(C)C1CC3 (some centres undefined)	0.438
CC(=O)n1cc(C(O)C2C=CC3C(=O)N(c4ccccc4)C(=O)C3N2Nc2ccc(C(C)C)cc2)c2ccccc21 (centres undefined)	1
CCOC(=O)C=Cc1ccccc1O	0.79
CC(C)C(=C=CC[C@H](O)c1cccc(OCCO)c1)CCO	0.277
C=C(COC)/C(=C/C[C@@H](OC(=O)c1ccncc1)c1ccccc1OCCO)c1cc(C(=O)OC)ccc1OC	0.249
COc1ccc([Si](C)(C)[C@@H]2[C@@H](CC(=O)N3Cc4ccccc4C[C@H]3CO)O[C@]3(C(=O)N(c4ccccc4)c4ccccc43)[C@H]2C)cc1	1.36
C=CCNC(=O)[C@@H]1[C@H]2C(=O)O[C@H](c3ccccc3)[C@H](c3ccccc3)N2[C@H](c2ccc(OCCO)cc2)[C@@]12C(=O)N(C(=O)OCCOC)c1ccc(C#CCCO)cc12	1.33
CC(C)[C@H]1NC(=O)[C@@]23C(=O)N[C@@H](Cc4ccccc4)C2[C@H](C)[C@@]2(C)O[C@H]2C3/C=C/C/C=C\CNC(=O)[C@H](Cc2ccccc2)NC1=O (some centres undefined)	1.31
CCOC(=O)C1=C[C@@H](c2ccccc2)N(S(=O)(=O)c2ccc(C)cc2)[C@H]1c1ccccc1	0.379
Cc1ccc(F)cc1S(=O)(=O)N[C@@H]1CCN(Cc2cccc3[nH]ccc23)C1	1.26
CC(=O)N1CC(C(O)C2C=CC3C(=O)NC(=O)C3N2Nc2ccc(Cl)cc2Cl)c2ccccc21 (centres undefined)	0.772
CCOC(=O)C1=CCC(c2ccco2)N(S(=O)(=O)c2ccc(C)cc2)C1 (centres undefined)	1.1
COCCOC(=O)N1C(=O)[C@@]2(c3cc(C#CCNC(N)=O)ccc31)[C@H](c1ccc(O)cc1)N1[C@H](c3ccccc3)[C@H](c3ccccc3)OC(=O)[C@H]1[C@@H]2C(=O)N1CCN(c2ncccn2)CC1	0.902
CCCCC(=C=CC[C@H](O)c1ccc(OCCO)cc1)C[C@H](O)c1cc(Cl)cc(Cl)c1O	0.906
CC(C)CNC(=O)[C@@]1(C)c2ccccc2C(=O)N(Cc2cc(C(F)(F)F)cc(C(F)(F)F)c2)[C@H]1c1ccc(CO)cc1	-0.117
NC(=O)[C@H]1[C@@H]2C(=O)O[C@@H](c3ccccc3)[C@@H](c3ccccc3)N2[C@@H](c2ccc(O)cc2)[C@]12C(=O)Nc1ccc(C#CC3=CCCCC3)cc12	0.959
O=C1N[C@@H](Cc2ccccc2)C(=O)N2[C@@H]1C[C@@H](C(=O)O)[C@H]2c1ccc(O)cc1	1.35
O=C1c2ccccc2[C@](Cc2ccccc2I)(C(=O)NC2CC2)[C@H](c2ccc(CO)cc2)N1Cc1ccccc1C(F)(F)F	1.15
CC=CC(O)C1C=CC2C(=O)NC(=O)C2N1Nc1ccccn1 (centres undefined)	1.02
COCCCNC(=O)[C@@]1(Sc2ccc(C)cc2)CC(=O)N(Cc2ccccc2Cl)[C@@H]1c1ccc(CO)cc1I	-0.242
C=C(C(=O)CC[C@H](OC(=O)c1ccccc1-c1ccccc1C(=O)O)c1ccccc1OCCO)C(C)C	0.991
CC(=O)NCCCC[C@@H]1NC(=O)[C@H]2C[C@@H](C(=O)NCCCCCNC(=O)CS)[C@@H](c3cccc(OCCO)c3)N2C1=O	1.33

Every entry's value here was drawn from PubChem BioAssay.
